Hey, just so you know, these numbers are from BindingDB's records for doi:10.1124/mol.63.6.1223.

A set of compounds tested on 5-hydroxytryptamine receptor 2B (Homo sapiens, UniProt P41595), with measured Ki:
endpoint: Ki (nM)

compound	endpoint	number
C[C@H](N)Cc1ccc2c(c1)OCO2	Ki	100
CN[C@H](C)Cc1ccc2c(c1)OCO2	Ki	6000
CCC(CO)NC(=O)C1C=C2c3cccc4[nH]cc(c34)CC2N(C)C1 (stereo not given)	Ki	0.8
CN[C@@H](C)Cc1ccc2c(c1)OCO2 [MDMA, R(-)]	Ki	900
C[C@@H](N)Cc1ccc2c(c1)OCO2	Ki	150

----------
target: Prostaglandin E2 receptor EP3 subtype (Homo sapiens, UniProt P43115)
Sequence (P43115 whole entry): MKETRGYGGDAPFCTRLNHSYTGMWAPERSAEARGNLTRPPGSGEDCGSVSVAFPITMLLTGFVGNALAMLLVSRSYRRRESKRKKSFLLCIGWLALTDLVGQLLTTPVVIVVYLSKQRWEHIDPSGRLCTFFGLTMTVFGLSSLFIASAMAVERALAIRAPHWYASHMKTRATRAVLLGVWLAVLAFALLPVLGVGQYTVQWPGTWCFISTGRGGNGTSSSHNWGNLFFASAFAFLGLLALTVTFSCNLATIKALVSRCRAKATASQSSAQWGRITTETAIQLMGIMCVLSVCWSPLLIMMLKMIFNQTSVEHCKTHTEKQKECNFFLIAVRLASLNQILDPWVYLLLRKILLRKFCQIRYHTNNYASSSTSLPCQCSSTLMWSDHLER
endpoint: Ki

smiles_repr	result
CN[C@@H](C)Cc1ccc2c(c1)OCO2	> 10 µM
